Documented fold change (FC) across a set of compounds
Biological target: Nuclear factor erythroid 2-related factor 2 (Mus musculus) (UniProt Q60795)
Sequence (whole entry): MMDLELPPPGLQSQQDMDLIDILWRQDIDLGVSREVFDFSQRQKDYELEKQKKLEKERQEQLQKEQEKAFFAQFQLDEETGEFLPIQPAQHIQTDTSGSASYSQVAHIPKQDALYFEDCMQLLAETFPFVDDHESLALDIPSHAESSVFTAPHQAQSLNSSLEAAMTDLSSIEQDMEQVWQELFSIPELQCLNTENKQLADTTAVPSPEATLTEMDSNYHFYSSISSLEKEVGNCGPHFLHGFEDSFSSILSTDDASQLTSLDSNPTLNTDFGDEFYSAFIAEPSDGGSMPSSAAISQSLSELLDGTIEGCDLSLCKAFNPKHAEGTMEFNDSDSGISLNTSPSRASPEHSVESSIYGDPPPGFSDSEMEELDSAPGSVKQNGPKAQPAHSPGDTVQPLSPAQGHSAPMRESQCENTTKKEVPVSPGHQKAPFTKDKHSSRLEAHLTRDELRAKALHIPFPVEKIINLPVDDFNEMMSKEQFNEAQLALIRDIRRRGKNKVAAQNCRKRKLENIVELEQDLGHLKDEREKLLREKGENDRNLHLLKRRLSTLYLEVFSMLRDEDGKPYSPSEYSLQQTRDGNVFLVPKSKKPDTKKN
Test: Activation of Nrf2 in mutant mouse BpRc1 cells cytosolic fraction assessed as induction of quinone reductase activity at 10 uM using 2,6-DCIP as substrate in presence of NADH incubated for 48 hrs measured for 1 min relative to control
Format: cell-based
READOUT_TYPE: fold change (FC)

INSERT INTO results (compound, readout_type, assay_value) VALUES
  ('O=C(/C=C/c1cccc(Br)n1)c1ccccc1O', 'fold change (FC)', 1.18),
  ('O=C(/C=C/c1ccccc1)c1cccc2ccccc12', 'fold change (FC)', 1.13),
  ('O=C(/C=C/c1ccc2ccccc2c1)c1ccccc1O', 'fold change (FC)', 1.39),
  ('O=C(/C=C/c1ccccc1)c1ccc2ccccc2c1O', 'fold change (FC)', 0.57),
  ('O=C(CC(CC(=O)c1ccccc1)c1cccc2ccccc12)c1ccccc1', 'fold change (FC)', 2.38),
  ('O=C(CC(O)c1ccccc1)c1c(O)ccc2ccccc12 (configuration not stated)', 'fold change (FC)', 1.14),
  ('O=C(/C=C/c1cccc2ccccc12)c1ccccc1', 'fold change (FC)', 0.92),
  ('O=C(/C=C/c1cncc(Br)c1)c1ccccc1O', 'fold change (FC)', 1.03),
  ('O=C(/C=C/c1ccc2ccccc2c1)c1ccccc1', 'fold change (FC)', 1.41),
  ('O=C(/C=C/c1ccccc1)c1ccc2ccccc2c1', 'fold change (FC)', 1.21),
  ('O=C(CC(O)c1ccccc1)c1ccc2ccccc2c1 (configuration not stated)', 'fold change (FC)', 1.74),
  ('O=C(/C=C/c1ccc2ccccc2c1)c1ccc2ccccc2c1O', 'fold change (FC)', 0.97),
  ('O=C(/C=C/c1cccc2ccccc12)c1ccccc1O', 'fold change (FC)', 2.21),
  ('O=C(/C=C/c1ccnc2ccccc12)c1cccc2ccccc12', 'fold change (FC)', 1.83),
  ('O=C(/C=C/c1ccc2ccccc2c1)c1c(O)ccc2ccccc12', 'fold change (FC)', 0.79),
  ('O=C(/C=C/c1ccnc2ccccc12)c1ccc2ccccc2c1', 'fold change (FC)', 1.25),
  ('O=C(/C=C/c1ccnc2ccccc12)c1ccc2ccccc2c1O', 'fold change (FC)', 0.85),
  ('O=C(/C=C/c1cccc2ccccc12)c1c(O)ccc2ccccc12', 'fold change (FC)', 0.82),
  ('O=C(/C=C/c1ccnc2ccccc12)c1ccccc1O', 'fold change (FC)', 1.34),
  ('O=C(/C=C/c1cncc(Br)c1)c1ccc2ccccc2c1O', 'fold change (FC)', 1.13),
  ('O=c1cc(-c2ccc(Br)cc2)oc2ccccc12', 'fold change (FC)', 1.49),
  ('O=C(/C=C/c1cccnc1Br)c1ccccc1O', 'fold change (FC)', 1.98);
